Test system: Pylorus ligated rats
Protocol description: Pylorus ligated ulcers
Format: in vivo, albino rats
Conditions: 25 mg/kg, 4 hours after pylorus ligation
Can you tell me Acidity Total mEg for the items I'm about to list?

Items follow; give Acidity Total mEg for each.
1. COc1c(OC2OC(CO)C(O)C(O)C2O)cc2oc(-c3ccccc3)cc(=O)c2c1O (stereo not shown) [OA-G]
2. O=c1cc(-c2ccccc2)oc2cc(OCCCCN3CCOCC3)cc(O)c12 [CHM-3]

Reply:
["41.66 (±1.66) m Eg", "44.10 (±2.20) m Eg"]

Below are some compounds; for each one, tell me its Acidity Total mEg.
1. COc1c(O)cc2oc(-c3ccccc3)cc(=O)c2c1O [Oroxylin A]
2. O=c1cc(-c2ccccc2)oc2cc(O)c(O)c(O)c12 [Baicalein, 5,6,7-trihydroxy-2-phenyl-chromen-4-one]

Reply:
["55.24 (±2.40) m Eg", "49.21 (±2.20) m Eg"]

* * *

Tested on: Pylorus ligated rats
Protocol description: Pylorus ligated ulcers
Type: in vivo, albino rats
Conditions: 25 mg/kg, 4 hours after pylorus ligation
Reported metric: pH

| Molecule | pH |
| --- | --- |
| COc1c(OC2OC(C(=O)O)C(O)C(O)C2O)cc2oc(-c3ccccc3)cc(=O)c2c1O (centres unmarked) | 3.03 (±0.03) |

// for each molecule in input: emit pH
1. CN1CCN(CCCOc2cc(O)c3c(=O)cc(-c4ccccc4)oc3c2)CC1
2. COC(=O)C1OC(Oc2ccc3c(=O)cc(-c4ccccc4)oc3c2)C(O)C(O)C1O (centres unmarked)
3. O=c1cc(-c2ccccc2)oc2cc(OCCCCN3CCOCC3)cc(O)c12
4. O=c1cc(-c2ccccc2)oc2cc(OCCCN3CCOCC3)cc(O)c12

Reply:
["4.25 (±0.14)", "3.08 (±0.22)", "3.41 (±0.16)", "3.79 (±0.20)"]

// each listed molecule needs a value for pH
1. O=c1cc(-c2ccccc2)oc2cc(OCCCN3CCCCC3)cc(O)c12
2. O=c1cc(-c2ccccc2)oc2cc(O)cc(O)c12 [Chrysin, 5,7-dihydroxy-2-phenyl-chromen-4-one]
3. COc1c(OC(=O)c2ccc(C)cc2)cc2oc(-c3ccccc3)cc(=O)c2c1O
4. CCCCCCCCCCCCCCCCC(=O)Oc1cc2oc(-c3ccccc3)cc(=O)c2c(O)c1OC
5. COC(=O)C1OC(Oc2cc3oc(-c4ccccc4)cc(=O)c3cc2OC)C(O)C(O)C1O (centres unmarked)
6. COc1cc(O)c2c(=O)cc(-c3ccccc3)oc2c1
7. COc1c(O)cc2oc(-c3ccccc3)cc(=O)c2c1O

Reply:
3.25 (±0.11)
4.00 (±0.40)
3.20 (±0.25)
3.66 (±0.20)
5.62 (±0.19)
3.20 (±0.25)
2.74 (±0.24)

Below are some molecules; for each one, tell me its pH.
1. O=c1cc(-c2ccccc2)oc2cc(OC3OC(CO)C(O)C(O)C3O)cc(O)c12 (centres unmarked)
2. O=c1cc(-c2ccccc2)oc2cc(O)c(O)c(O)c12 [Baicalein, 5,6,7-trihydroxy-2-phenyl-chromen-4-one]
3. CN1CCN(CCCCOc2cc(O)c3c(=O)cc(-c4ccccc4)oc3c2)CC1
4. CN(C)CCCOc1cc(O)c2c(=O)cc(-c3ccccc3)oc2c1
5. COc1c(OC2OC(CO)C(O)C(O)C2O)cc2oc(-c3ccccc3)cc(=O)c2c1O (centres unmarked)

Reply:
1: 3.50 (±0.28); 2: 3.01 (±0.30); 3: 3.54 (±0.15); 4: 4.25 (±0.09); 5: 3.20 (±0.15)

* * *

Test system: Pylorus ligated rats
Protocol description: Pylorus ligated ulcers
Format: in vivo, albino rats
Conditions: 25 mg/kg, 4 hours after pylorus ligation
Reported metric: Ulcer index Mean(SE)

Consider the following illustrative entries.
| Compound | Study target | Ulcer index Mean(SE) |
| --- | --- | --- |
| O=c1cc(-c2ccccc2)oc2cc(O)cc(O)c12 [Chrysin, 5,7-dihydroxy-2-phenyl-chromen-4-one] | Pylorus ligated rats | 37.21 (±0.26) |
| COC(=O)C1OC(Oc2cc3oc(-c4ccccc4)cc(=O)c3cc2OC)C(O)C(O)C1O (centres unmarked) | Pylorus ligated rats | 12.49 (±3.74) |
| CN1CCN(CCCOc2cc(O)c3c(=O)cc(-c4ccccc4)oc3c2)CC1 | Pylorus ligated rats | 28.33 (±0.10) |
| O=c1cc(-c2ccccc2)oc2cc(OCCCN3CCCCC3)cc(O)c12 | Pylorus ligated rats | 15.80 (±2.71) |
| CCCCCCCCCCCCCCCCC(=O)Oc1cc2oc(-c3ccccc3)cc(=O)c2c(O)c1OC | Pylorus ligated rats | 43.33 (±2.10) |

Look at each compound and report its Ulcer index Mean(SE).
1. O=c1cc(-c2ccccc2)oc2cc(OC3OC(CO)C(O)C(O)C3O)cc(O)c12 (centres unmarked)
2. COc1c(O)cc2oc(-c3ccccc3)cc(=O)c2c1O
3. O=c1cc(-c2ccccc2)oc2cc(O)c(O)c(O)c12 [Baicalein, 5,6,7-trihydroxy-2-phenyl-chromen-4-one]

Reply:
24.93 (±1.66)
50.80 (±2.00)
40.66 (±5.50)

* * *

Tested on: Pylorus ligated rats
Protocol description: Pylorus ligated ulcers
Assay type: in vivo, albino rats
Conditions: 25 mg/kg, 4 hours after pylorus ligation
From the text: The compounds taken under study for antigastric ulcer screening by four different models were selected using experimental albino rats: • 1. Aspirin induced gastric ulceration • 2. Pylorus ligated gastric ulceration • 3. Ethanol induced gastric ulceration • 4. Stress induced gastric ulceration The commercially available drug ranitidine (sigma), Omeprazole (sigma) and sucralfate (Merck) were used as reference standard in experimental models. […]
Reported metric: Acidity Total mEg

| Compound | Acidity Total mEg |
| --- | --- |
| COc1c(OC2OC(C(=O)O)C(O)C(O)C2O)cc2oc(-c3ccccc3)cc(=O)c2c1O (stereo not shown) [OA-5 acid] | 41.00 (±0.57) m Eg |
| CN1CCN(CCCCOc2cc(O)c3c(=O)cc(-c4ccccc4)oc3c2)CC1 [NMC-3] | 43.48 (±2.50) m Eg |
| COC(=O)C1OC(Oc2ccc3c(=O)cc(-c4ccccc4)oc3c2)C(O)C(O)C1O (stereo not shown) [CGL] | 40.00 (±1.15) m Eg |
| CN(C)CCCOc1cc(O)c2c(=O)cc(-c3ccccc3)oc2c1 [CHN-2] | 37.18 (±4.20) m Eg |
| CCCCCCCCCCCCCCCCC(=O)Oc1cc2oc(-c3ccccc3)cc(=O)c2c(O)c1OC [ORC-16] | 42.20 (±2.20) m Eg |
| O=c1cc(-c2ccccc2)oc2cc(OCCCN3CCCCC3)cc(O)c12 [CPP-2] | 29.06 (±2.20) m Eg |
| COC(=O)C1OC(Oc2cc3oc(-c4ccccc4)cc(=O)c3cc2OC)C(O)C(O)C1O (stereo not shown) [OA-5] | 30.18 (±0.50) m Eg |
| O=c1cc(-c2ccccc2)oc2cc(O)cc(O)c12 [Chrysin, 5,7-dihydroxy-2-phenyl-chromen-4-one] | 56.00 (±0.82) m Eg |

Consider the following items and state reported Acidity Total mEg for each.
1. CN1CCN(CCCOc2cc(O)c3c(=O)cc(-c4ccccc4)oc3c2)CC1 [NMC-2]
2. COc1cc(O)c2c(=O)cc(-c3ccccc3)oc2c1 [Methoxy chrysin]
3. O=c1cc(-c2ccccc2)oc2cc(OCCCN3CCOCC3)cc(O)c12 [CHM-2]
4. O=c1cc(-c2ccccc2)oc2cc(OC3OC(CO)C(O)C(O)C3O)cc(O)c12 (stereo not shown) [CG]

Reply:
36.26 (±2.80) m Eg
47.20 (±2.40) m Eg
41.48 (±3.20) m Eg
44.33 (±2.33) m Eg

Task item: Lab note: need Acidity Total mEg with Pylorus ligated rats for entry COc1c(OC(=O)c2ccc(C)cc2)cc2oc(-c3ccccc3)cc(=O)c2c1O [ORPM-1] , please look it up.
Reply: 45.24 (±0.30) m Eg

* * *

So I've got a bunch of compounds here, and I need their Ulcer index Mean(SE) values.
System: ethanol induced gastric ulcers
Protocol description: Ethanol induced ulcers
Type: in vivo, albino rats
Conditions: rats, 25 mg/kg, ethanol challenge

Below, 2 compounds whose answers are already recorded.
| Compound | Ulcer index Mean(SE) |
| --- | --- |
| O=c1cc(-c2ccccc2)oc2cc(O)c(O)c(O)c12 [Baicalein, 5,6,7-trihydroxy-2-phenyl-chromen-4-one] | 43.33 (±3.33) |
| COc1c(OC(=O)c2ccc(C)cc2)cc2oc(-c3ccccc3)cc(=O)c2c1O | 47.50 (±1.11) |

Give Ulcer index Mean(SE) for each listed item.
1. O=c1cc(-c2ccccc2)oc2cc(OC3OC(CO)C(O)C(O)C3O)cc(O)c12 (centres unmarked)
2. CCCCCCCCCCCCCCCCC(=O)Oc1cc2oc(-c3ccccc3)cc(=O)c2c(O)c1OC
3. COc1c(OC2OC(C(=O)O)C(O)C(O)C2O)cc2oc(-c3ccccc3)cc(=O)c2c1O (centres unmarked)

Reply:
["31.66 (±4.41)", "51.50 (±1.05)", "36.66 (±3.33)"]

src = patent US7855200B2
